Attribution: the supplement of paper PMC10307832

test system: LXF-289; assay: relative viability (nuclei count vs DMSO), 5 days (fraction); higher = more cells survive; settings: first compound 0.8 µM

| molecule | experimental system | relative viability |
| --- | --- | --- |
| O=c1[nH]c2ccccc2n1C1CCN(CCCC(c2ccc(F)cc2)c2ccc(F)cc2)CC1 [Pimozide] + Nc1nc2[nH]cc(CCc3ccc(C(=O)N[C@@H](CCC(=O)O)C(=O)O)cc3)c2c(=O)[nH]1 [Pemetrexed] (partner 0.2 µM) | LXF-289 | 0.859 |
| O=c1[nH]c2ccccc2n1C1CCN(CCCC(c2ccc(F)cc2)c2ccc(F)cc2)CC1 [Pimozide] + CC(=O)c1c(C)c2cnc(Nc3ccc(N4CCNCC4)cn3)nc2n(C2CCCC2)c1=O [Palbociclib] (partner 0.5 µM) | LXF-289 | 0.571 |
| O=c1[nH]c2ccccc2n1C1CCN(CCCC(c2ccc(F)cc2)c2ccc(F)cc2)CC1 [Pimozide] + O=C(CCCCCCC(=O)Nc1ccccc1)NO [Vorinostat] (partner 1 µM) | LXF-289 | 0.718 |
| Cc1cnc(-c2cnc(NCCNc3ccc(C#N)cn3)nc2-c2ccc(Cl)cc2Cl)[nH]1 + O=C(CCCCCCC(=O)Nc1ccccc1)NO [Vorinostat] (partner 1 µM) | LXF-289 | 0.734 |

###

test system: LU99A; experiment: relative viability (nuclei count vs DMSO), 5 days (fraction); higher = more cells survive; settings: first compound 0.005 µM
Quick rule for you: relative viability under 0.4 gets Condition met, anything else gets Condition not met.

| molecule | answer label |
| --- | --- |
| Nc1ccn([C@@H]2O[C@H](CO)[C@@H](O)[C@@H]2O)c(=O)n1 [Cytarabine] + C[C@]1(O)C[C@@H](c2nc(-c3ccc4ccc(-c5ccccc5)nc4c3)c3c(N)nccn32)C1 [Linsitinib] (partner 1 µM) | Condition not met |
| Nc1ccn([C@@H]2O[C@H](CO)[C@@H](O)[C@@H]2O)c(=O)n1 [Cytarabine] + O=C(CCCCCCC(=O)Nc1ccccc1)NO [Vorinostat] (partner 1 µM) | Condition not met |
| Nc1ccn([C@@H]2O[C@H](CO)[C@@H](O)[C@@H]2O)c(=O)n1 [Cytarabine] + CS(=O)(=O)N1CCN(Cc2cc3nc(-c4cccc5[nH]ncc45)nc(N4CCOCC4)c3s2)CC1 [Pictilisib] (partner 1 µM) | Condition met |
| COc1cc2nccc(Oc3ccc(NC(=O)Nc4cc(C)on4)c(Cl)c3)c2cc1OC [Tivozanib] + CC1(C)CCC(c2ccc(Cl)cc2)=C(CN2CCN(c3ccc(C(=O)NS(=O)(=O)c4ccc(N[C@H](CCN5CCOCC5)CSc5ccccc5)c(S(=O)(=O)C(F)(F)F)c4)cc3)CC2)C1 [Navitoclax] (partner 0.5 µM) | Condition not met |
| COc1cc2nccc(Oc3ccc(NC(=O)Nc4cc(C)on4)c(Cl)c3)c2cc1OC [Tivozanib] + O=C(c1cc(Cc2n[nH]c(=O)c3ccccc23)ccc1F)N1CCN(C(=O)C2CC2)CC1 [Olaparib] (partner 8 µM) | Condition met |
| Nc1ccn([C@@H]2O[C@H](CO)[C@@H](O)[C@@H]2O)c(=O)n1 [Cytarabine] + CC1(C)CCC(c2ccc(Cl)cc2)=C(CN2CCN(c3ccc(C(=O)NS(=O)(=O)c4ccc(N[C@H](CCN5CCOCC5)CSc5ccccc5)c(S(=O)(=O)C(F)(F)F)c4)cc3)CC2)C1 [Navitoclax] (partner 0.5 µM) | Condition not met |
| Nc1ccn([C@@H]2O[C@H](CO)[C@@H](O)[C@@H]2O)c(=O)n1 [Cytarabine] + Nc1nc2[nH]cc(CCc3ccc(C(=O)N[C@@H](CCC(=O)O)C(=O)O)cc3)c2c(=O)[nH]1 [Pemetrexed] (partner 0.2 µM) | Condition met |
| COc1cc2nccc(Oc3ccc(NC(=O)Nc4cc(C)on4)c(Cl)c3)c2cc1OC [Tivozanib] + COc1cc2c(Oc3ccc(NC(=O)C4(C(=O)Nc5ccc(F)cc5)CC4)cc3F)ccnc2cc1OCCCN1CCOCC1 [Foretinib] (partner 0.25 µM) | Condition not met |
| COc1cc2nccc(Oc3ccc(NC(=O)Nc4cc(C)on4)c(Cl)c3)c2cc1OC [Tivozanib] + NC(=O)Nc1cc(-c2cccc(F)c2)sc1C(=O)N[C@H]1CCCNC1 [AZD7762] (partner 0.2 µM) | Condition met |

###

test system: NCI-H650; assay: relative viability (nuclei count vs DMSO), 5 days (fraction); higher = more cells survive; conditions: first compound 0.08 µM
Reported relative viability values follow for various compounds
metric: relative viability

| compound | metric | reported value |
| --- | --- | --- |
| Cc1cnc(-c2cnc(NCCNc3ccc(C#N)cn3)nc2-c2ccc(Cl)cc2Cl)[nH]1 + CC(C)C[C@H](NC(=O)[C@H](Cc1ccccc1)NC(=O)c1cnccn1)B(O)O [Bortezomib] (partner 0.002 µM) | relative viability | 0.707 |
| Cc1cnc(-c2cnc(NCCNc3ccc(C#N)cn3)nc2-c2ccc(Cl)cc2Cl)[nH]1 + CS(=O)(=O)CCNCc1ccc(-c2ccc3ncnc(Nc4ccc(OCc5cccc(F)c5)c(Cl)c4)c3c2)o1 [Lapatinib] (partner 2 µM) | relative viability | 0.926 |
| O=c1[nH]c2ccccc2n1C1CCN(CCCC(c2ccc(F)cc2)c2ccc(F)cc2)CC1 [Pimozide] + C[C@@H](Oc1cc(-c2cnn(C3CCNCC3)c2)cnc1N)c1c(Cl)ccc(F)c1Cl [Crizotinib] (partner 1 µM) | relative viability | 0.707 |

###

test system: NCI-H1975; assay: relative viability (nuclei count vs DMSO), 5 days (fraction); higher = more cells survive; settings: first compound 2.53 µM
Reported relative viability values follow for various compounds

| compound | relative viability |
| --- | --- |
| Cc1cnc(-c2cnc(NCCNc3ccc(C#N)cn3)nc2-c2ccc(Cl)cc2Cl)[nH]1 + N=C(N)NC(=N)NCCc1ccccc1 [Phenformin] (partner 250 µM) | 0.286 |
| Cc1cnc(-c2cnc(NCCNc3ccc(C#N)cn3)nc2-c2ccc(Cl)cc2Cl)[nH]1 + COc1cc2c(Oc3ccc(NC(=O)C4(C(=O)Nc5ccc(F)cc5)CC4)cc3F)ccnc2cc1OCCCN1CCOCC1 [Foretinib] (partner 0.25 µM) | 0.573 |
| O=c1[nH]c2ccccc2n1C1CCN(CCCC(c2ccc(F)cc2)c2ccc(F)cc2)CC1 [Pimozide] + CCNC(=O)c1noc(-c2cc(C(C)C)c(O)cc2O)c1-c1ccc(CN2CCOCC2)cc1 [Luminespib] (partner 0.01 µM) | 0.239 |

###

system: NCI-H358; test: relative viability (nuclei count vs DMSO), 5 days (fraction); higher = more cells survive; conditions: first compound 0.05 µM
metric: relative viability

| compound | reported value |
| --- | --- |
| COc1cc2nccc(Oc3ccc(NC(=O)Nc4cc(C)on4)c(Cl)c3)c2cc1OC [Tivozanib] + Cc1nc(NC(=O)N2CCC[C@H]2C(N)=O)sc1-c1ccnc(C(C)(C)C(F)(F)F)c1 [Alpelisib] (partner 2 µM) | 0.771 |
| Nc1ccn([C@@H]2O[C@H](CO)[C@@H](O)[C@@H]2O)c(=O)n1 [Cytarabine] + Cc1nc(Nc2ncc(C(=O)Nc3c(C)cccc3Cl)s2)cc(N2CCN(CCO)CC2)n1 [Dasatinib] (partner 0.075 µM) | 0.131 |
| COc1cc2nccc(Oc3ccc(NC(=O)Nc4cc(C)on4)c(Cl)c3)c2cc1OC [Tivozanib] + N=C(N)NC(=N)NCCc1ccccc1 [Phenformin] (partner 250 µM) | 0.411 |
| COc1cc2nccc(Oc3ccc(NC(=O)Nc4cc(C)on4)c(Cl)c3)c2cc1OC [Tivozanib] + COc1cc2c(Oc3ccc(NC(=O)C4(C(=O)Nc5ccc(F)cc5)CC4)cc3F)ccnc2cc1OCCCN1CCOCC1 [Foretinib] (partner 0.25 µM) | 0.732 |
| Nc1ccn([C@@H]2O[C@H](CO)[C@@H](O)[C@@H]2O)c(=O)n1 [Cytarabine] + CS(=O)(=O)CCNCc1ccc(-c2ccc3ncnc(Nc4ccc(OCc5cccc(F)c5)c(Cl)c4)c3c2)o1 [Lapatinib] (partner 2 µM) | 0.364 |
| COc1cc2nccc(Oc3ccc(NC(=O)Nc4cc(C)on4)c(Cl)c3)c2cc1OC [Tivozanib] + Cc1nc(Nc2ncc(C(=O)Nc3c(C)cccc3Cl)s2)cc(N2CCN(CCO)CC2)n1 [Dasatinib] (partner 0.075 µM) | 0.174 |
| COc1cc2nccc(Oc3ccc(NC(=O)Nc4cc(C)on4)c(Cl)c3)c2cc1OC [Tivozanib] + NC(=O)Nc1cc(-c2cccc(F)c2)sc1C(=O)N[C@H]1CCCNC1 [AZD7762] (partner 0.2 µM) | 0.552 |
| Nc1ccn([C@@H]2O[C@H](CO)[C@@H](O)[C@@H]2O)c(=O)n1 [Cytarabine] + CC(=O)Nc1cccc(-n2c(=O)n(C3CC3)c(=O)c3c(Nc4ccc(I)cc4F)n(C)c(=O)c(C)c32)c1 [Trametinib] (partner 0.02 µM) | 0.103 |
| Nc1ccn([C@@H]2O[C@H](CO)[C@@H](O)[C@@H]2O)c(=O)n1 [Cytarabine] + Nc1nc2[nH]cc(CCc3ccc(C(=O)N[C@@H](CCC(=O)O)C(=O)O)cc3)c2c(=O)[nH]1 [Pemetrexed] (partner 0.2 µM) | 0.185 |
| COc1cc2nccc(Oc3ccc(NC(=O)Nc4cc(C)on4)c(Cl)c3)c2cc1OC [Tivozanib] + CC(=O)Nc1cccc(-n2c(=O)n(C3CC3)c(=O)c3c(Nc4ccc(I)cc4F)n(C)c(=O)c(C)c32)c1 [Trametinib] (partner 0.02 µM) | 0.161 |
